# system.name: UniProtKB P08684
# Sequence (P08684 whole entry): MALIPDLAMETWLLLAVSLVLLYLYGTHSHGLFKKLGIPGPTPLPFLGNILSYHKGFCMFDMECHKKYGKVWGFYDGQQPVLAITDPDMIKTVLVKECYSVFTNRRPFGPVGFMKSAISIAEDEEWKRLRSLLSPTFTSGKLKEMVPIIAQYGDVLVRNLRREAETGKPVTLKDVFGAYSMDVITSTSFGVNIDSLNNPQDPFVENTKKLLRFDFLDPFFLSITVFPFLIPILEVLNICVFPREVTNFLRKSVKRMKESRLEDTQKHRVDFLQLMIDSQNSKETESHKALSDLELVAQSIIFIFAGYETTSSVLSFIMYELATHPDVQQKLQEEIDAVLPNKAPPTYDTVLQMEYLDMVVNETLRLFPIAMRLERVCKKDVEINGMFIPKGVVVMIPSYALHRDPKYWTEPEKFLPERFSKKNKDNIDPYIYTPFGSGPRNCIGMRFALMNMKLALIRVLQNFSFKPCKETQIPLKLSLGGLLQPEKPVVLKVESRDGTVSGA
# experimental.conditions: Potency;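 also: confirmatory qHTS run detecting inhibitors and substrates of CYP3A4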
Consider the following compounds; for each one, report its AC50.

Prompt: Give UniProtKB P08684 AC50 for the following compound: COC(=O)C1=C(C)N(Cc2ccccc2)[C@]23O[C@](C(=O)OC)(C(=O)N2C1c1ccccc1)C(C(=O)OC)=C3C(=O)OC (some centres undefined)
Completion: 3.16 µM (inconclusive)

Prompt: Give UniProtKB P08684 AC50 for the following compound: CCCCCCC#CC1C=CC(OC(C)=O)C(COC(C)=O)O1 (centres undefined)
Completion: 3.98 µM (inconclusive)

Prompt: # return AC50 for FC(F)(F)c1ccc(C2[C@H]3CN(Cc4ccc(-c5ccccc5)cc4)[C@H](c4ccccc4)C34CC2(c2ccccc2)C4)cc1 (some centres undefined) , test system: UniProtKB P08684
Completion: 25.1 µM (inconclusive)

Prompt: Param request: AC50 | system UniProtKB P08684 | item COC(=O)N1C2(C=CC1(C)C(=O)NCc1ccc(N(C)C)cc1)CCCCC2 (centres undefined)
Completion: 0.501 µM (inconclusive)

Reference for the values: ChEMBL document CHEMBL1201862
